ASSAYED_SYSTEM: ADP-ribosyl cyclase/cyclic ADP-ribose hydrolase 1 (Homo sapiens)
Sequence (P28907 whole entry): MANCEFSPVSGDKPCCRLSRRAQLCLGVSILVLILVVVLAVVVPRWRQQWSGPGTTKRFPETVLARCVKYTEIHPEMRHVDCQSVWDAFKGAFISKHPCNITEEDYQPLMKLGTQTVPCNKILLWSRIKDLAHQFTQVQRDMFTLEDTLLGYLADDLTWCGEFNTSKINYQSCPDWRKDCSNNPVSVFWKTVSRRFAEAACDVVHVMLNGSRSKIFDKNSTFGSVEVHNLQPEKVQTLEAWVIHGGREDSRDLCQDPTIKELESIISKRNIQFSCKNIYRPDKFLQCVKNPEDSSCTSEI
ASSAY_NOTES: Inhibition of human CD38 using 20 uM 1, N6-etheno NAD+ as substrate by continuous fluorimetric method
MEASUREMENT_LABEL: pIC50
Keep in mind that pIC50 stands for -log10 of concentration in molar terms.

Input: Fill in the recorded pIC50 for this compound, with ADP-ribosyl cyclase/cyclic ADP-ribose hydrolase 1 (Homo sapiens) as test system: COc1ccc(-c2ccc3c(O)cc(O)cc3[o+]2)cc1O
Output: 4.49

Input: Param item: Oc1ccc2cc(O)c(-c3ccc(O)c(O)c3)[o+]c2c1
Output: 4.15

Input: Can you handle COc1cc(-c2[o+]c3cc(O)cc(O)c3cc2O)cc(O)c1O next?
Output: 4.41

Input: Further, for Oc1ccc(-c2[o+]c3cc(O)cc(O)c3cc2O)cc1 ?
Output: 4.79

Input: Similarly, Oc1cc(O)c2cc(O)c(-c3cc(O)c(O)c(O)c3)[o+]c2c1 ?
Output: 4.84

Input: Entry OC[C@H]1O[C@@H](Oc2cc3c(O)cc(O)cc3[o+]c2-c2ccc(O)c(O)c2)[C@H](O)[C@@H](O)[C@@H]1O please
Output: 5.20

Input: Next up: O=c1cc(-c2ccc(O)c(O)c2)oc2cc(O)cc(O)c12
Output: 5.09

Input: Do the same for COc1cc(-c2[o+]c3cc(O)cc(O)c3cc2O)cc(OC)c1O please
Output: 4.77

Input: Next entry: Oc1ccc(-c2[o+]c3cc(O)c(O)c(O)c3cc2O)cc1O
Output: 4.85

Input: Thanks! And O=c1c(O)c(-c2ccc(O)c(O)c2)oc2cc(O)c(O)c(O)c12 ?
Output: 4.31

Input: Would you mind doing O=c1c(O)c(-c2cc(O)c(O)c(O)c2)oc2cc(O)ccc12 as well?
Output: 4.42

Input: Then O=c1c(O)c(-c2cc(O)c(O)c(O)c2)oc2cc(O)cc(O)c12 ?
Output: 4.61

Input: # repeat for Oc1cc(O)c2cc(O)c(-c3ccc(O)c(O)c3)[o+]c2c1
Output: 4.66

Input: # iterate: O=c1c(O)c(-c2ccc(O)c(O)c2)oc2cc(O)cc(O)c12
Output: 4.42

Input: Try Oc1cc(O)c2ccc(-c3ccc(O)c(O)c3)[o+]c2c1 next.
Output: 5.22

====

ASSAYED_SYSTEM: ADP-ribosyl cyclase/cyclic ADP-ribose hydrolase 1 (Homo sapiens, UniProt P28907)
ASSAY_NOTES: Inhibition of human CD38 using 20 uM 1, N6-etheno NAD+ as substrate by continuous fluorimetric method
MEASUREMENT_LABEL: IC50

Input: I would be grateful if you could share the reported IC50 for Oc1ccc(/C=C/c2cc(O)cc(O)c2)cc1 .
Output: > 100 µM

Input: Next entry: Oc1cc(O)c2c(c1)OC(c1ccc(O)c(O)c1)C(O)C2 (racemic)
Output: > 100 µM

Input: Input Oc1cc(O)cc(/C=C/c2ccc(O)c(O)c2)c1
Output: > 100 µM

Hello, the source for this data is ChEMBL document CHEMBL1795225, in case you need it.
